- Tested on: OVCAR8 MZ1-R cells
- assay explanation: CellTiter-Glo cell viability, OVCAR8 MZ1-R cells
- Assay type: cell-based
- condition notes: OVCAR8 MZ1-R, escalating doses, 5 days
measurement name: cell viability of MZ1-R cells compared with parental cells

Here's what some known entries look like.
Cc1sc2c(c1C)C(c1ccc(Cl)cc1)=N[C@@H](CC(=O)Nc1ccc(OCCOCCOCCOCCNc3cccc4c3C(=O)N(C3CCC(=O)NC3=O)C4=O)cc1)c1nnc(C)n1-2 (stereo partly shown) :: inhibited cell viability
Cc1sc2c(c1C)C(c1ccc(Cl)cc1)=N[C@@H](CC(=O)NCCCCCCCCNC(=O)COc1cccc3c1C(=O)N(C1CCC(=O)NC1=O)C3=O)c1nnc(C)n1-2 (stereo partly shown) :: inhibited cell viability
O=C(O)c1ccc2c(c1)nc(Nc1cccc(Cl)c1)c1ccncc12 :: more sensitive
CS(=O)(=O)N1CCN(Cc2cc3nc(-c4cccc5[nH]ncc45)nc(N4CCOCC4)c3s2)CC1 :: more sensitive

Attention now shifts to the item below.
COC[C@@H](C)NC1CCC(Nc2cc(-c3cccc(NCC4(C#N)CCOCC4)n3)c(Cl)cn2)CC1 (stereo partly shown) has a reported cell viability of MZ1-R cells compared with parental cells of more sensitive

###

- Tested on: OVCAR8 MZ1-R cells
- assay explanation: CellTiter-Glo cell viability, OVCAR8 MZ1-R cells
- Type: cell-based
- condition notes: OVCAR8 MZ1-R, escalating doses, 5 days
measurement name: cell viability of MZ1-R cells compared with parental cells

CCN(CCO)CCCC(C)Nc1ccnc2cc(Cl)ccc12 (stereo not drawn) [hydroxychloroquine] :: more sensitive
O=C(c1cc(Cc2n[nH]c(=O)c3ccccc23)ccc1F)N1CCN(C(=O)C2CC2)CC1 :: more sensitive

###

- Test system: OVCAR8 JQ1-R cells
- assay explanation: CellTiter-Glo cell viability, OVCAR8 JQ1-R cells
- Type: cell-based
- condition notes: escalating doses, 5 days
measurement name: cell viability of JQ1-R cells

Here's what some known entries look like.
O=C(O)c1ccc2c(c1)nc(Nc1cccc(Cl)c1)c1ccncc12 [Cx-4945] :: more sensitive
CS(=O)(=O)N1CCN(Cc2cc3nc(-c4cccc5[nH]ncc45)nc(N4CCOCC4)c3s2)CC1 [GDC-0941] :: more sensitive
Cc1ncsc1-c1ccc(CNC(=O)[C@@H]2C[C@@H](O)CN2C(=O)[C@@H](NC(=O)COCCOCCOCCNC(=O)C[C@@H]2N=C(c3ccc(Cl)cc3)c3c(sc(C)c3C)-n3c(C)nnc32)C(C)(C)C)cc1 [MZ1] :: inhibited cell viability
COC[C@@H](C)NC1CCC(Nc2cc(-c3cccc(NCC4(C#N)CCOCC4)n3)c(Cl)cn2)CC1 (stereo partly drawn) [NVP-2] :: more sensitive
CCN(CCO)CCCC(C)Nc1ccnc2cc(Cl)ccc12 (stereo not drawn) [hydroxychloroquine] :: more sensitive
O=C(c1cc(Cc2n[nH]c(=O)c3ccccc23)ccc1F)N1CCN(C(=O)C2CC2)CC1 [olaparib] :: more sensitive

Attention now shifts to the item below.
Value sought: cell viability of JQ1-R cells, system OVCAR8 JQ1-R cells, item Cc1sc2c(c1C)C(c1ccc(Cl)cc1)=N[C@@H](CC(=O)Nc1ccc(OCCOCCOCCOCCNc3cccc4c3C(=O)N(C3CCC(=O)NC3=O)C4=O)cc1)c1nnc(C)n1-2 (stereo partly drawn) [ARV825] . Result: inhibited cell viability
